target: Atrial natriuretic peptide receptor 1 (Homo sapiens) (UniProt P16066); test: Natriuretic polypeptide receptor (hNpr1) antagonism - Pilot screen (AID 1347049); conditions: hNpr1 cells, antagonist mode cGMP read-out; series mostly up to 57.5 µM;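 further: HEK293 cells with hNpr1 and GloSensor cGMP luciferase stimulated by 0.1 nM hNppA; agonist-evoked cGMP luminescence read 20 min after hNppA addition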
Sequence (P16066 whole entry, looked up): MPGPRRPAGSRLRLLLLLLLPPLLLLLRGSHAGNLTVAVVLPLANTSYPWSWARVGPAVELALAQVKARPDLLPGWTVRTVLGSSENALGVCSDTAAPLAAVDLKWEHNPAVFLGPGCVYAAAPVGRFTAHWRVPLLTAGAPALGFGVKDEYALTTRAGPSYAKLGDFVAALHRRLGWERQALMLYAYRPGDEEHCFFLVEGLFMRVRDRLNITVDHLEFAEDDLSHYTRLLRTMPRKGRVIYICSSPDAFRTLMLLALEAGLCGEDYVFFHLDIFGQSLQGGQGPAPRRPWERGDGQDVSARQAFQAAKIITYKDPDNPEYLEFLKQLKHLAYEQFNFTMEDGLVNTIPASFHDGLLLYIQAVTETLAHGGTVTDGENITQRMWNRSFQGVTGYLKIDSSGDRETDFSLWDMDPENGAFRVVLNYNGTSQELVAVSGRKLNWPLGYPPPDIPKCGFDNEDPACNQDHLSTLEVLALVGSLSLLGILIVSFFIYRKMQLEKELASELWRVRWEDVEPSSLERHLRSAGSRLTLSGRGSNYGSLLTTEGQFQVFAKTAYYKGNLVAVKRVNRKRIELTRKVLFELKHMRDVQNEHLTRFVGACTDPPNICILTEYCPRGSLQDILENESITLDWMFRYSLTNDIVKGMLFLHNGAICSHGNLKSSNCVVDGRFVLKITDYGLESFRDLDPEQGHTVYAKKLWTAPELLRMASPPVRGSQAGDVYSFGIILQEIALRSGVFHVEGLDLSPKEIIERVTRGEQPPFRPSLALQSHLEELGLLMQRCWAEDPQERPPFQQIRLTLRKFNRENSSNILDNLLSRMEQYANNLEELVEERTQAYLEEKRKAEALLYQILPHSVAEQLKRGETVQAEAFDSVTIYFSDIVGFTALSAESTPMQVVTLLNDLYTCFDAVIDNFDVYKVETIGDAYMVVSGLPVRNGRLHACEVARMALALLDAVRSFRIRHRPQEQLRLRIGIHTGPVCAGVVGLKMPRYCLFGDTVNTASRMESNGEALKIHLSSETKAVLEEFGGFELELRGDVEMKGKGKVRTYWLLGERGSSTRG
Results filed as inconclusive are left out. Activity calls are given as the source filed them. The call rests on the fitted dose curve.
Outcomes: active, inactive

Compound: O=C(CCCCCN1CCN(c2ccccc2-c2ccccc2)CC1)NC1CCCc2ccccc21 (stereo not given)
Assigned Category: inactive

Compound: CSc1ccccc1N1CCN(CCCCCC(=O)NC2CCCc3ccccc32)CC1 (stereo not given)
Assigned Category: inactive

Compound: O=C1O/C(=C/Br)CCC1c1cccc2ccccc12 (stereo not given)
Assigned Category: active

Compound: Nc1nc(Cl)nc2c1ncn2[C@@H]1O[C@H](CO)[C@@H](O)[C@H]1O
Assigned Category: inactive

Compound: CNC(=O)[C@H]1O[C@@H](n2cnc3c(NCc4ccc(N)cc4)ncnc32)[C@H](O)[C@@H]1O
Assigned Category: inactive

Compound: COc1cccc(C(=O)NCCN2CCN(c3ccc(Cl)cc3)CC2)c1
Assigned Category: inactive

Compound: C=C[C@H]1CN2CC[C@@H]1C[C@@H]2[C@@H](O)c1ccnc2ccc(OC)cc12
Assigned Category: inactive

Compound: CC(N)C(=O)OC(C)(C)Cc1ccc(Cl)cc1 (stereo not given)
Assigned Category: inactive

Compound: CN1[C@@H](CC(=O)c2ccccc2)CCC[C@H]1C[C@H](O)c1ccccc1
Assigned Category: inactive

Compound: COc1ccccc1CNCCCCCCNCCCCCCCCNCCCCCCNCc1ccccc1OC
Assigned Category: inactive
